Assay: Thiol cleavage of prodrugs with BnSH
Type: physicochemical
readout_name: half-life (h)
Output spec: scalar in h, unitless text.

Returns the measured half-life for the input compound. Input: NC(=O)NOc1cc2c(c3ccccc13)C(CCl)CN2C(=O)c1cc2cc(NC(=O)c3cc4ccccc4[nH]3)ccc2[nH]1 (stereo not shown)
35

Repeat with CN(Oc1cc2c(c3ccccc13)C(CCl)CN2C(=O)c1cc2cc(NC(=O)c3cc4ccccc4[nH]3)ccc2[nH]1)C(=O)OC(C)(C)C (stereo not shown)
48

Now the same for COC(=O)NOc1cc2c(c3ccccc13)C(CCl)CN2C(=O)c1cc2cc(NC(=O)c3cc4ccccc4[nH]3)ccc2[nH]1 (stereo not shown)
10
